- System: Fibroblast
- assay-procedure: Incucyte cell viability with human fibroblast; note: unitless GR value; below 1 slowed growth and below 0 cell loss
- Format: toxicity, cell-based
- run-parameters: 24 h, 10 µM, compound concentration 10 uM, replicate number 1
Peptide text beside a SMILES is read from it.
experimental-readout: Growth Rate
// return just the number, without any unit appended

{"columns": ["molecule", "Growth Rate"],
 "data": [
  ["CC(=O)N[C@H](C(=O)N[C@@H](CC(=O)O)C(=O)N[C@H](C(=O)N[C@@H](C)C(=O)N[C@H](C=O)CC(=O)O)C(C)C)C(C)C (Ac-VDVAD-aldehyde)", 0.52],
  ["Cc1ncsc1-c1ccc(CNC(=O)[C@@H]2C[C@@H](O)CN2C(=O)[C@@H](NC(=O)COCCOCCOc2ccc(-c3ccc4ncnc(Nc5ccc(OCc6cccc(F)c6)c(Cl)c5)c4c3)cc2)C(C)(C)C)cc1", 1]
]}

Challenge: Need Growth Rate, item Br.N#Cc1ccc(-c2csc(NN=C3CCCC3)n2)cc1
Response given: 0.31
